- procedure_details: in vitro
- run_parameters: monkey, vero cells
experimental_readout: CC50 (µM)

>>> observed_measurement("O=C(/C=C/c1ccc(O)cc1)OC[C@H]1O[C@@H](Oc2c(-c3ccc(O)cc3)oc3cc(O)cc(O)c3c2=O)[C@H](O)[C@@H](O)[C@@H]1O")
126

FYI, the data here is from patent EP3352763B1.
